Listed below: Cmax values for each entry.
# test-name: Plasma pharmacokinetics of phenolic metabolites after intake of the GCPE nutraceutical (LC-MS-QToF)
# assay-context: week 0, GCPE nutraceutical with 300 mg hydroxycinnamic acids, mean ± SEM, n = 9

| molecule | Cmax |
| --- | --- |
| O=C(O)Cc1cccc(O)c1 [3′-Hydroxyphenylacetic acid] | 200 nM |
| COc1ccc(CCC(=O)O)cc1OS(=O)(=O)O [DHiFA-3′-sulfate] | 40 nM |
| O=C(O)CCc1ccc(OS(=O)(=O)O)c(O)c1 [DHCA-4′-sulfate] | 340 nM |
| O=C(O)Cc1ccc(O)cc1 [4′-Hydroxyphenylacetic acid] | 2000 nM |
| COc1cc(C=CC(=O)O)ccc1OC1OC(C(=O)O)C(O)C(O)C1O (stereo not drawn) [FA-4′-glucuronide, 3′-Methoxycinnamic acid-4′-glucuronide] | 16 nM |
| O=C(O)/C=C/c1ccc(OS(=O)(=O)O)cc1 [CoA-4′-sulfate, Cinnamic acid-4′-sulfate] | 20 nM |
| COc1cc(CCC(=O)O)ccc1OS(=O)(=O)O [DHFA-4′-sulfate] | 190 nM |
| COc1cc(CC(=O)O)ccc1O [4′-Hydroxy-3′-methoxyphenylacetic acid] | 140 nM |

###

# test-name: Urinary excretion of phenolic metabolites after intake of the GCPE nutraceutical
# assay-context: week 0, interval 9–11 h
// Amount excreted in urine, 9-11 h lookup, one value per entry

| compound | Amount excreted in urine, 9-11 h / µmol |
| --- | --- |
| O=C(O)c1cccc(O)c1 [3-Hydroxybenzoic acid] | 0.064 |
| COc1cc(C=CC(=O)O)ccc1OC1OC(C(=O)O)C(O)C(O)C1O (stereo not shown) [FA-4′-glucuronide, 3′-Methoxycinnamic acid-4′-glucuronide] | 0.44 |
| O=C(O)CNC(=O)c1ccc(O)cc1 [4′-Hydroxyhippuric acid] | 0.8 |
| COc1ccc(CCC(=O)O)cc1O | 0.8 |

###

# test-name: Fecal excretion of phenolic metabolites after intake of the GCPE nutraceutical
# assay-context: feces; 0 h; week 0; mean ± SEM, n = 9
# Amount of fecal metabolite excreted at 0 h >= 0.007 µmol/g gives label 1, anything below gives label 0

| molecule | answer-label |
| --- | --- |
| O=C(O)c1ccc(O)cc1 [4-Hydroxybenzoic acid] | label 0 |
| O=C(O)c1ccc(O)c(O)c1 [3,4-Dihydroxybenzoic acid] | label 1 |
| O=C(O)CCc1ccc(O)c(O)c1 [DHCA, 3-(3′,4′-Dihydroxyphenyl)propanoic acid] | label 1 |
| O=C(O)c1cccc(O)c1 [3-Hydroxybenzoic acid] | label 1 |
| O=C(O)Cc1cccc(O)c1 [3′-Hydroxyphenylacetic acid] | label 1 |
| O=C(O)CCc1ccc(O)cc1 [DHCoA, 3-(4′-Hydroxyphenyl)propanoic acid] | label 0 |
| COc1cc(C(=O)O)ccc1O [4-Hydroxy-3-methoxybenzoic acid] | label 1 |
| COc1cc(/C=C/C(=O)O[C@@H]2C[C@@](O)(C(=O)O)C[C@@H](O)[C@@H]2O)ccc1O [3-Feruloylquinic acid] | label 0 |

###

As shown below, each of these molecules has a reported log10(Amount excreted in urine, 11-24 h) value.
# test-name: Urinary excretion of phenolic metabolites after intake of the GCPE nutraceutical
# assay-context: week 0, interval 11–24 h
measured-metric: log10(Amount excreted in urine, 11-24 h) (log10 of the value in µmol)

| molecule | test-result |
| --- | --- |
| COc1cc(CCC(=O)OC2CC(O)(C(=O)O)CC(O)C2O)ccc1O (centres unmarked) [5-Dihydroferuloylquinic acid] | -1.00 |
| COc1ccc(CCC(=O)O)cc1O[C@@H]1O[C@H](C(=O)O)[C@@H](O)[C@H](O)[C@H]1O [DHiFA-3′-glucuronide] | -0.10 |
| O=C(O)c1ccc(O)cc1 [4-Hydroxybenzoic acid] | -0.54 |
| O=C(O)CCc1ccc(OS(=O)(=O)O)cc1 [DHCoA-4′-sulfate, 3-(Phenyl)propanoic acid-4′-sulfate] | 1.08 |
| O=C(O)/C=C/c1ccc(O)c(OS(=O)(=O)O)c1 [CA-3′-sulfate, 4′Hydroxycinnamic acid-3′-sulfate] | -0.05 |
| O=C(O)CCc1ccc(O)cc1 [DHCoA, 3-(4′-Hydroxyphenyl)propanoic acid] | 0.15 |
| O=C(O)CNC(=O)c1ccc(O)cc1 [4′-Hydroxyhippuric acid] | 0.58 |
| COc1ccc(CCC(=O)O)cc1O | 0.08 |
